Overview of reported IC50 across a group of compounds:
test system: SK-OV-3; experiment: Antiproliferative activity against human SKOV3 cells by SRB assay; assay type: functional, cell-based

Recorded results for 2 compounds are shown here.
INSERT INTO measurements (compound, data_value) VALUES
  ('CO/N=C1\C(=O)N(CCOCCn2cc(CN3C(=O)/C(=N\OC)c4ccccc43)nn2)c2ccccc21', '0.18 to 9.92 µM'),
  ('COc1cc([C@@H]2c3cc4c(cc3[C@@H](O[C@@H]3O[C@@H]5CO[C@@H](C)O[C@H]5[C@H](O)[C@H]3O)[C@H]3COC(=O)[C@H]23)OCO4)cc(OC)c1O [ETOPOSIDE]', '6.94 to 50 µM');

From here, focus on the item given below.
Recorded IC50 of "Cc1ccc2c(c1)/C(=N/O)C(=O)N2CCOCCn1cc(COc2ccc3c(C)cc(=O)oc3c2)nn1" , please.
15.5 to 31.5 µM

Data provenance is ChEMBL document CHEMBL4342418.
